FYI, the data here is from patent US5972958A.

Listing of recorded log10 of IC50 by entry.
# system under test: dopamine D2 receptor (Rattus norvegicus)
# Sequence (P61169 whole entry): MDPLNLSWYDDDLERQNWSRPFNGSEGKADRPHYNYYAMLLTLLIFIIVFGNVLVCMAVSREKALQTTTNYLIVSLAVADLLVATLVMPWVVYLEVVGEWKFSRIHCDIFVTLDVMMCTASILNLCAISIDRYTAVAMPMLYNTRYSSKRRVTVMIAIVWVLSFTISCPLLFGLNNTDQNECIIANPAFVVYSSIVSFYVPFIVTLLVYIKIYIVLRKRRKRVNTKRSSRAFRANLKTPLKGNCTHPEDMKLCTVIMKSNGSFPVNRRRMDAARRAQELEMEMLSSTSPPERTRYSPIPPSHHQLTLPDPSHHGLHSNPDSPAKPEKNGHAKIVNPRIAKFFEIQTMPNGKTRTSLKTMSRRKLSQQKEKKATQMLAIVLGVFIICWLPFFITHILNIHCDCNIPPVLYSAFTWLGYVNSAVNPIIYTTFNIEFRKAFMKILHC
# method: Affinity for the dopamine D-2 receptor, 3H-spiroperidol (D2 Spiper) binding in homogenized limbic brain tissue
# Set-up: homogenized limbic brain tissue; from tissue; host or cells: limbic brain tissue (homogenate)
# settings: low-affinity agonist state
measurement label: log10 of IC50 (log10 of the value in nM)

compound structure string: S=c1[nH]c2cc(Cl)cc(OCCNCc3ccsc3)c2[nH]1
log10 of IC50: 1.93

compound structure string: S=c1[nH]c2cccc(OCCN3CCc4ccccc4C3)c2[nH]1
log10 of IC50: 2.37

compound structure string: S=c1[nH]c2cc(Cl)cc(OCCNCc3cccs3)c2[nH]1
log10 of IC50: 1.94

compound structure string: Sc1nc2c(OCCNCc3ccccc3)cc(Cl)cc2[nH]1
log10 of IC50: 1.76

compound structure string: S=c1[nH]c2cccc(OCCCNCc3ccccc3)c2[nH]1
log10 of IC50: 3.08

compound structure string: S=c1[nH]c2cccc(OCCNCc3ccccc3)c2[nH]1
log10 of IC50: 1.52

compound structure string: CC(C)(C)c1ccc(CNCCOc2cccc3[nH]c(=S)[nH]c23)cc1
log10 of IC50: 0.84

compound structure string: S=c1[nH]c2cccc(OCCNCc3ccc(Cl)cc3)c2[nH]1
log10 of IC50: 1.94

compound structure string: Cc1ccc(CNCCOc2cccc3[nH]c(=S)[nH]c23)cc1
log10 of IC50: 1.58

compound structure string: S=c1[nH]c2cccc(OCCNCc3cccc4ccccc34)c2[nH]1
log10 of IC50: 1.57
